assay: in vivo; conditions: male, athymic nude, mouse, plasma, iv, 19 mg/kg
reportedMetric: AUC (ng·h/mL)
Report as a plain number; the unit ng·h/mL is understood.

Please give the documented AUC of CC(=O)O[C@@]12CO[C@@H]1C[C@H](O)[C@@]1(C)C(=O)[C@H](O)C3=C(C)[C@@H](OC(=O)[C@H](O)[C@@H](NC(=O)OC(C)(C)C)c4ccccc4)C[C@@](O)([C@@H](OC(=O)c4ccccc4)[C@H]21)C3(C)C [Docetaxel, docetaxel]
13000
